Tested target: Multidrug efflux pump subunit AcrB (Escherichia coli (strain K12)) (UniProt P31224)
Sequence (whole entry): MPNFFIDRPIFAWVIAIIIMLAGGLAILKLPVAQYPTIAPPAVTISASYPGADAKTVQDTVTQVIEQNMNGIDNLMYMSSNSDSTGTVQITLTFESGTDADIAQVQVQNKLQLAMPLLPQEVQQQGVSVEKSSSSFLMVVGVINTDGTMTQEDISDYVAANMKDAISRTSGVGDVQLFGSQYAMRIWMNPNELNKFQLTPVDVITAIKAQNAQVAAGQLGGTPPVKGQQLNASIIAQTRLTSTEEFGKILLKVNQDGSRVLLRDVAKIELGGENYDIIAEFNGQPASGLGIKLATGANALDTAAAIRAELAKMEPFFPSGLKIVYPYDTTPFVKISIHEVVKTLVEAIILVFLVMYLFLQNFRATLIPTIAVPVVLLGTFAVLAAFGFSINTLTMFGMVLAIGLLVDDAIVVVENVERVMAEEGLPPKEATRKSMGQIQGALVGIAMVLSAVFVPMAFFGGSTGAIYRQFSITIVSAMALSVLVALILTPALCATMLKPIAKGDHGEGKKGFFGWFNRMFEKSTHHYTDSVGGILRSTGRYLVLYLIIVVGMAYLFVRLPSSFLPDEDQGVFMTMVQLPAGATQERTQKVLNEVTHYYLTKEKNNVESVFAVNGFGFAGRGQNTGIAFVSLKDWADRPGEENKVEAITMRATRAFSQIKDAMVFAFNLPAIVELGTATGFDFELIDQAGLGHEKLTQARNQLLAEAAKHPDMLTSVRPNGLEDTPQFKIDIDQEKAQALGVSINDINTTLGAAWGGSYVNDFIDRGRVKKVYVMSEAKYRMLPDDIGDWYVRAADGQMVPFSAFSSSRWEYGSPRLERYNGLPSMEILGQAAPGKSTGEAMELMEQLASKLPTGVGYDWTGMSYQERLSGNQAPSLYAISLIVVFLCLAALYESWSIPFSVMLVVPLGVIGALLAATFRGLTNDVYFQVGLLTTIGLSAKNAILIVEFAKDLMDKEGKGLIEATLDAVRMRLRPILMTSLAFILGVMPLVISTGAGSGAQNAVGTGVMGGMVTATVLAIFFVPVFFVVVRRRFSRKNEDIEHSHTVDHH
Assay overview: Inhibition of AcrB in multidrug-resistant Escherichia coli BW25113 assessed as potentiation of erythromycin-induced antibacterial activity by measuring erythromycin MIC at 8 ug/ml by checkerboard titration method (reference value: 64 ug/ml)
Experimental parameters: dose 8.0 µg/ml
Parameter: MIC (µg/mL)
Give bare numbers, in µg/mL.

Entry smiles	Readout units	MIC
C=CC(=O)Nc1ccc(COc2cccc3c4c(c(Cn5cnnn5)cc23)CCC(C)(C)O4)cc1	µg/mL	64
CC1(C)CCc2c(C(=O)O)cc3c(OCc4ccccc4)cccc3c2O1	µg/mL	64

Record MIC per entry; entries follow.
1. C=CC(=O)Nc1ccc(COc2cccc3c4c(c(C(=O)N5CCOCC5)cc23)CCC(C)(C)O4)cc1
2. CC1(C)CCc2c(Cn3cnnn3)cc3c(OCc4ccccc4)cccc3c2O1
3. CC1(C)CCc2c(Cn3cnnn3)cc3c(OCc4ccc([N+](=O)[O-])cc4)cccc3c2O1

# output
16
64
64

----------
Tested target: Multidrug efflux pump subunit AcrB (Escherichia coli (strain K12))
Sequence (whole entry): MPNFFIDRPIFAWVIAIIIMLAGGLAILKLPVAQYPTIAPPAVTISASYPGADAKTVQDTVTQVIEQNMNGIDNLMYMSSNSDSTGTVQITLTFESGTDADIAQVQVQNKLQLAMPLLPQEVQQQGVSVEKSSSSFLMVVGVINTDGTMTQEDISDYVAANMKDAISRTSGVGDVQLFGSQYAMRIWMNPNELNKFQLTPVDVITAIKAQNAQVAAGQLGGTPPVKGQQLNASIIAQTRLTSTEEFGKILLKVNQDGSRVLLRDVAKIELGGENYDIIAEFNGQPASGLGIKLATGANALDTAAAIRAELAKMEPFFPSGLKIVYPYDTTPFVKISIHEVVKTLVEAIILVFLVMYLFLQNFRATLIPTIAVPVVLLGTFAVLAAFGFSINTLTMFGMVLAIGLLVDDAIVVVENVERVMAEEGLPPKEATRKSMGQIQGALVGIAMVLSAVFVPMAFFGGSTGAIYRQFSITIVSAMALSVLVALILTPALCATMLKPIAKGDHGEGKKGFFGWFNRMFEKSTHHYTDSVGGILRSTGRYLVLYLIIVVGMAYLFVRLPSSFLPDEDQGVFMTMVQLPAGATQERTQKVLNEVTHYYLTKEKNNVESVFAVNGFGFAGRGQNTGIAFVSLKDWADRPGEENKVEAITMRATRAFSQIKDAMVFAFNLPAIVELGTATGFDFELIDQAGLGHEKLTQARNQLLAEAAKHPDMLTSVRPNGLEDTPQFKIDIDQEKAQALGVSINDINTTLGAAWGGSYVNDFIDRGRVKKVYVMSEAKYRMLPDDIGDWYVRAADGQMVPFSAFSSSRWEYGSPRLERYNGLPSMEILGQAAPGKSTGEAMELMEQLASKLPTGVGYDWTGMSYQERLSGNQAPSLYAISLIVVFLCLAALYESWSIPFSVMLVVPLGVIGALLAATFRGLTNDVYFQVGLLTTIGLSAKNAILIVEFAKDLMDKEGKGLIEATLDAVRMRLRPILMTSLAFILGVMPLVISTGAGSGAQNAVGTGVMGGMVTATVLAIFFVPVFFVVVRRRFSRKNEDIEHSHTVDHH
Assay overview: Inhibition of AcrB in multidrug-resistant Escherichia coli BW25113 assessed as potentiation of chloramphenicol-induced antibacterial activity by measuring chloramphenicol MIC at 16 ug/ml by checkerboard titration method (reference value: 8 ug/ml)
Experimental parameters: dose 16.0 µg/ml
Exercise: state measured MIC for each of the compounds provided.
Numbers only, in µg/mL.

Compound	Readout units	MIC
CC1(C)CCc2c(C(=O)N3CCOCC3)cc3c(OCc4ccccc4)cccc3c2O1	µg/mL	4
CC1CN(C(=O)c2cc3c(OCc4c(Cl)cccc4Cl)cccc3c3c2CCC(C)(C)O3)CC(C)O1 (centres undefined)	µg/mL	8
C[C@@H](Cc1ccc(O)c(O)c1)[C@@H](C)Cc1ccc(O)c(O)c1	µg/mL	8

Kindly consider the entry below.
# input Could you tell me which MIC is on file for "CC1(C)CCc2c(-c3nnco3)cc3c(OCc4ccc(C#N)cc4)cccc3c2O1" ?
# output 4

----------
Tested target: Multidrug efflux pump subunit AcrB (Escherichia coli (strain K12))
Sequence (whole entry): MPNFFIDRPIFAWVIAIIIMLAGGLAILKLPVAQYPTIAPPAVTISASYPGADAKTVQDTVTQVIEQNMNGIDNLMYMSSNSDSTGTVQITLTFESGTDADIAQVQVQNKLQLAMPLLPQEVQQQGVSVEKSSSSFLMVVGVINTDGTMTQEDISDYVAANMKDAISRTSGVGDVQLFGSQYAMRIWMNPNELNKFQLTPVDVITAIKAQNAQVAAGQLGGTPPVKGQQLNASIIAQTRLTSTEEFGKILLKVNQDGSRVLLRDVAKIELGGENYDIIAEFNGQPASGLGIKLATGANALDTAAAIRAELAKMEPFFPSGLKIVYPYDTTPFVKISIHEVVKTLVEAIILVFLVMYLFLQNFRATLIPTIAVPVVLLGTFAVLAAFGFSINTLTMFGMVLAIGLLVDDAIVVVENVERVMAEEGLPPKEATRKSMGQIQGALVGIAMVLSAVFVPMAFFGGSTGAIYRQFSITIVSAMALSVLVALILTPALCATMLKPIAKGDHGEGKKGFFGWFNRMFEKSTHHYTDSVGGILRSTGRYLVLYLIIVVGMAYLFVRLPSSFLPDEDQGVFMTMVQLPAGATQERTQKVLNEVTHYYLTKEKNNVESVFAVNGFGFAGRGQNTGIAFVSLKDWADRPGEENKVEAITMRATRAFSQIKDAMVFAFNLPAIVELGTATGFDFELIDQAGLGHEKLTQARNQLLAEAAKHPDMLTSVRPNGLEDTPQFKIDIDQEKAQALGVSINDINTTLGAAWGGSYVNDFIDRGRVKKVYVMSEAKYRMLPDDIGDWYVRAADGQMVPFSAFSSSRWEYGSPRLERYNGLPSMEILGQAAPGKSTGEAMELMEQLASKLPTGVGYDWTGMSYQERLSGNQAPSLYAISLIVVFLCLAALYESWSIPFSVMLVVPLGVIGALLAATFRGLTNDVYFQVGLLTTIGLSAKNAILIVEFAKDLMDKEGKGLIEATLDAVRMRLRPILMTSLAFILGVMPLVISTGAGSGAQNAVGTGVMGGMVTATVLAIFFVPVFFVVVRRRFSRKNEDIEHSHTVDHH
Assay overview: Inhibition of AcrB in multidrug-resistant Escherichia coli BW25113 assessed as potentiation of chloramphenicol-induced antibacterial activity by measuring chloramphenicol MIC at 128 ug/ml by checkerboard titration method (reference value: 8 ug/ml)
Experimental parameters: dose 128.0 µg/ml
Parameter: MIC (µg/mL)
Give bare numbers, in µg/mL.

Some solved entries appear below for comparison.
Compound	MIC / µg/mL
CC1(C)CCc2c(-c3nnco3)cc3c(OCc4ccc([N+](=O)[O-])cc4)cccc3c2O1	4
CC1(C)CCc2c(Cn3cnnn3)cc3c(OCc4ccccc4)cccc3c2O1	4

Record MIC per entry; entries follow.
1. Cc1ccc(COc2cccc3c4c(c(-c5nnco5)cc23)CCC(C)(C)O4)cc1
2. C=CC(=O)Nc1ccc(COc2cccc3c4c(c(C(=O)N5CCOCC5)cc23)CCC(C)(C)O4)cc1
3. CC1CN(C(=O)c2cc3c(OCc4c(Cl)cccc4Cl)cccc3c3c2CCC(C)(C)O3)CC(C)O1 (centres undefined)
4. CC(C)NCCOc1ccc2c(c1)OC(C)(C)CC2=O
5. CC1(C)CCc2c(Cn3cnnn3)cc3c(OCc4ccc([N+](=O)[O-])cc4)cccc3c2O1
6. C[C@@H](Cc1ccc(O)c(O)c1)[C@@H](C)Cc1ccc(O)c(O)c1
7. CC1(C)CCc2c(-c3nnco3)cc3c(OCc4ccc(C#N)cc4)cccc3c2O1

# output
1. 2
2. 2
3. 8
4. 8
5. 8
6. 4
7. 2
